Every entry's value here was drawn from patent US20190225680A1.

Target: T1, human TNC rCd4-His-FBG (rat; human, UniProt P05540 207-386)
T1 construct: domain: domains 3 and 4; Biotinylated in the ELISA and HTRF assays; also called Hu TNC; human TNC FBG
T1 sequence: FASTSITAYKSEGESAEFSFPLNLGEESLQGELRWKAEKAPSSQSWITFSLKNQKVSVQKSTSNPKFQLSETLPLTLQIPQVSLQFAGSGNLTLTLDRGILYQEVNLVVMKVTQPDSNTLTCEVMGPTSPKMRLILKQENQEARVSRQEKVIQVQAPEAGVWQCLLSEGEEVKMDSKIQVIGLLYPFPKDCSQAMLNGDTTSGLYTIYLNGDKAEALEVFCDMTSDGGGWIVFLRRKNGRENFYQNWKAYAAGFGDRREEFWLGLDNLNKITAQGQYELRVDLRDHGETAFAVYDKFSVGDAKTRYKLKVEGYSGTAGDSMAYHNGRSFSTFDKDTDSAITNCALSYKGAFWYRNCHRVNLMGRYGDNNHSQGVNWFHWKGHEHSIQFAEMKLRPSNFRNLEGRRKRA
Assay: HTRF competition, scFv supernatant, competitor d2-labelled B12 IgG, biotinylated human rCd4-His-FBG
PROPERTY LABEL: % inhibition of HTRF signal (%)
Give just the numeric value; % need not be written.

Prompt: Could you tell me which % inhibition of HTRF signal is on file for 165_13_A4 scFv (scFv, V domains shown, VH CDR3 DKYPVLDTFDI; not shown: scFv linker, domain order, and the tags of the pSANG10 vector (FLAG and others)) VH: QVQLVESGGGLVQPGRSLRLSCAASGFTFDDYAMHWVRQAPGKGLEWVSGISGSGGSTYYADSVKGRFTISRDNAKNSLYLQMNSLRAEDTALYYCAKDKYPVLDTFDIWGQGTMVTVSS VL: DIQMTQSPASLPTPVGDRVTITCRASQYIQGFLNWYQQKPGKAPKLLIYDASNLETGVPSRFSGSGSGTDFTLTISSLQPEDFATYYCQQSYSTPQTFGQGTKVDIK ?
Response: 91

Prompt: // repeat for 165_13_B6 scFv (scFv, V domains shown, VH CDR3 GQKGEGDTFDI; not shown: scFv linker, domain order, and the tags of the pSANG10 vector (FLAG and others)) VH: QVQLVESGGGLVQPGRSLRLSCAASGFTFDDYAMHWVRQAPGKGLEWVSGISGSGGSTYYADSVKGRFTISRDNAKNSLYLQMNSLRAEDTALYYCAKGQKGEGDTFDIWGQGTMVTVSS VL: DIQMTQSPASLPTPVGDRVTITCRASQYIQGFLNWYQQKPGKAPKLLIYDASNLETGVPSRFSGSGSGTDFTLTISSLQPEDFATYYCQQSYSTPQTFGQGTKVDIK and report
Response: 91

Prompt: Now give it for 165_13_C3 scFv (scFv, V domains shown, VH CDR3 SYQSDEDAFDI; Antibody C3 of the B12 family; not shown: scFv linker, domain order, and the tags of the pSANG10 vector (FLAG and others)) VH: QVQLVESGGGLVQPGRSLRLSCAASGFTFDDYAMHWVRQAPGKGLEWVSGISGSGGSTYYADSVKGRFTISRDNAKNSLYLQMNSLRAEDTALYYCAKSYQSDEDAFDIWGQGTMVTVSS VL: DIQMTQSPASLPTPVGDRVTITCRASQYIQGFLNWYQQKPGKAPKLLIYDASNLETGVPSRFSGSGSGTDFTLTISSLQPEDFATYYCQQSYSTPQTFGQGTKVDIK too.
Response: 91
